Source of measurements: patent US10052320B2

Molecular target: Ba/F3-Flt3-transfected cells (Homo sapiens, UniProt P36888, cells depend on it, form not given)
Test: Ba/F3-Flt3 (minus IL3) cellular proliferation assay, Alamar Blue
Assay type: cell-based
Settings: minus IL3
Description: Ba/F3-Flt3 (Minus IL3 or Plus IL3) (Cellular Proliferation Assay) Cells were put in an incubator at 37° C. and 5% CO2. After 24 hours, 10 μl of Alamar Blue solution (0.5 mM K3Fe(CN)6, 0.5 mM KaFe(CN)6, 0.15 mM Resazurin and 100 mM Phosphate Buffer) was added to the wells, incubated for 4 hours at 37° C. and 5% CO2 before RFU's (Relative Fluorescence Units) (ex. 540 nm., em. 590 nm.) were measured in a flurorescence plate reader. […]
Examples of molecules with documented BAF3-FLT3 (MIN IL3) 384 well pIC50 follow.

COc1cc(OC)cc(N(CCO)c2ccc3ncc(-c4ccnc(C(=O)NCCCN)c4)nc3c2)c1 = <5
COc1cc(OC)cc(N(CCCO)c2ccc3ncc(-c4ccnc(-c5ccnc(Cl)c5)c4)nc3c2)c1 = <5
COc1cc(OC)cc(N(CCNC(C)C)c2ccc3ncc(C(=O)N4CCOCC4)nc3c2)c1 = <5
COc1cc(OC)cc(N(CCNC(C)C)c2ccc3ncc(-n4cnc(CO)c4)nc3c2)c1 = <5
COc1cc(OC)cc(N(CCCNCCCO)c2ccc3ncc(-c4ccnc(C(=O)NCCCCN)c4)nc3c2)c1 = 5.31
COc1cc(OC)cc(N(CCO)c2ccc3ncc(-c4ccccc4CCO)nc3c2)c1 = <5

Now consider a different molecule.
BAF3-FLT3 (MIN IL3) 384 well pIC50 lookup needed for `CCOC(=O)c1ncn(-c2cnc3ccc(N(CC4CC4)c4cc(OC)cc(OC)c4)cc3n2)c1C` , thanks. <5

###

Examples of compounds with documented melting point follow.
Answer format: number, then unit.

These recorded examples may help you get a feel for the data.
COc1cc(OC)cc(N(CC#Cc2ncccn2)c2ccc3ncc(-c4cccnc4)nc3c2)c1 = 184 °C
COc1cc(OC)cc(N(CC(OC(C)=O)C(F)(F)F)c2ccc3ncc(-c4cccnc4)nc3c2)c1 (single isomer, unassigned) = 180 °C
COc1cc(OC)cc(N(CCO)c2ccc3ncc(-c4ccc(N5CCNCC5)nc4)nc3c2)c1 = 171 °C
COc1cc(OC)cc(N(CCN)c2ccc3ncc(-c4ccn(C)c4)nc3c2)c1 = 106 °C

melting point lookup needed for `COc1cc(OC)cc(N(CCCO)c2ccc3ncc(-c4ccnc(C(=O)NCCCCCN)c4)nc3c2)c1` , thanks. 161 °C

melting point lookup needed for `COc1cc(OC)cc(N(CCO)c2ccc3ncc(C4=CCN(C(=O)OC(C)(C)C)C4)nc3c2)c1` , thanks. 142 °C

###

target: Ba/F3-KDR-transfected cells (Homo sapiens, UniProt P35968); test: Ba/F3-KDR (minus IL3) cellular proliferation assay, Alamar Blue; type: cell-based; details: minus IL3
Sequence (P35968 whole entry, change not shown): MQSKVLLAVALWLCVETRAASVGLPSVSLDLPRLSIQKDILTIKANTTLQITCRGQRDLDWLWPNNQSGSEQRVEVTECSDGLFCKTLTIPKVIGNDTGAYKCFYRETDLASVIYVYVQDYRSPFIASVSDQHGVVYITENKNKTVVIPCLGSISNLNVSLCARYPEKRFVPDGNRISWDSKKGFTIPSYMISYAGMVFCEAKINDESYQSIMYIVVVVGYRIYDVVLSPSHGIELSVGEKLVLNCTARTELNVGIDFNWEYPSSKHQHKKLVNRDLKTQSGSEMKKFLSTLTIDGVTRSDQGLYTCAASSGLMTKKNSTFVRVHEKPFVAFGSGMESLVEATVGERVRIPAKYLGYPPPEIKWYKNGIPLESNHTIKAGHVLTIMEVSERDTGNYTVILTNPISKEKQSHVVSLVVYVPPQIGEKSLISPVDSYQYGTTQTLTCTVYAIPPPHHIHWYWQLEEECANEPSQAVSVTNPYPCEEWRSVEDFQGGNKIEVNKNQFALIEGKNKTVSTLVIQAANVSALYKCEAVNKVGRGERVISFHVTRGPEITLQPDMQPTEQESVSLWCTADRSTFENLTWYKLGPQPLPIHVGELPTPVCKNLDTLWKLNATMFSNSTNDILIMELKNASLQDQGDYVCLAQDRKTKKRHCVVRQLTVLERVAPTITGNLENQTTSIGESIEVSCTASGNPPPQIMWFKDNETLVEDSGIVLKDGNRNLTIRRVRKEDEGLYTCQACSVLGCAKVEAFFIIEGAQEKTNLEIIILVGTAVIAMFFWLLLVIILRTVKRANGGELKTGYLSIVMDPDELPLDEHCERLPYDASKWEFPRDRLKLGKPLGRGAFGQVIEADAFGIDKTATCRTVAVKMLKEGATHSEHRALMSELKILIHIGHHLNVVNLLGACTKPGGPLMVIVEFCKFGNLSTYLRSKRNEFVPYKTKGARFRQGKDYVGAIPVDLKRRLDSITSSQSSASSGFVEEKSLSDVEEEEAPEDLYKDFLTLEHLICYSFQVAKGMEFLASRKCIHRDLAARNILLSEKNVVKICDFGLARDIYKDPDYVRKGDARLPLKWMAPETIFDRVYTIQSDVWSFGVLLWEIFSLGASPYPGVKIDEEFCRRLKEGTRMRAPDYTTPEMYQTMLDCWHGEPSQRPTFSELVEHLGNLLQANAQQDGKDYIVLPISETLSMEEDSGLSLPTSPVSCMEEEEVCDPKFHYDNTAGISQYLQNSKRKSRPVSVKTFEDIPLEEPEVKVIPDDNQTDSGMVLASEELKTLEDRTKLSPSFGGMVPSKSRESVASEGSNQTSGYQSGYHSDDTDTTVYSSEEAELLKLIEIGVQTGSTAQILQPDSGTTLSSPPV
measured_property: BAF3-KDR (MIN IL3) 384 well pIC50

These recorded examples may help you get a feel for the data.
COc1cc(OC)cc(N(CC2CC2)c2ccc3ncc(-c4cn(CCN5CCOCC5)nn4)nc3c2)c1 [Compound 24] = <5
COc1cc(OC)cc(N(CCCO)c2ccc3ncc(-c4ccnc(-c5ccnc(Cl)c5)c4)nc3c2)c1 [Compound 133] = <5
COc1cc(OC)cc(N(CC2CC2)c2ccc3ncc(C(=O)NCCN4CCOCC4)nc3c2)c1 [Compound 96] = <5

Any idea what BAF3-KDR (MIN IL3) 384 well pIC50 came out for COc1cc(OC)cc(N(CCNC(C)C)c2ccc3ncc(-c4ccn(C)c4)nc3c2)c1 [Compound 8] on Ba/F3-KDR-transfected cells (Homo sapiens, UniProt P35968)? 6.19
